B1: MAC-RBM41-WT [human] / DEAH-box RNA helicase DHX8 [human (endogenous in Flp-In T-REx 293)] (parent)
chain 1: MKRVNSCVKSDEHVLEELETEGERQLKSLLQHQLDTSVSIEECMSKKESFAPGTMYKPFGKEAAGTMTLSQFQTLHEKDQETASLRELGLNETEILIWKSHVSGEKKTKLRATPEAIQNRLQDIEERISERQRILCLPQRFAKSKQLTRREMEIEKSLFQGADRHSFLKALYYQDEPQKKNKGDPMNNLESFYQEMIMKKRLEEFQLMRGEPFASHSLVSATSVGDSGTAESPSLLQDKGKQAAQGKGPSLHVANVIDFSPEQCWTGPKKLTQPIEFVPEDEIQRNRLSEEEIRKIPMFSSYNPGEPNKVLYLKNLSPRVTERDLVSLFARFQEKKGPPIQFRMMTGRMRGQAFITFPNKEIAWQALHLVNGYKLHGKILVIEFGKNKKQRSNLQATSLISCATGSTTEISGS
chain 2: MAVAVAMAGALIGSEPGPAEELAKLEYLSLVSKVCTELDNHLGINDKDLAEFVISLAEKNTTFDTFKASLVKNGAEFTDSLISNLLRLIQTMRPPAKPSTSKDPVVKPKTEKEKLKELFPVLCQPDNPSVRTMLDEDDVKVAVDVLKELEALMPSAAGQEKQRDAEHRDRTKKKKRSRSRDRNRDRDRDRERNRDRDHKRRHRSRSRSRSRTRERNKVKSRYRSRSRSQSPPKDRKDRDKYGERNLDRWRDKHVDRPPPEEPTIGDIYNGKVTSIMQFGCFVQLEGLRKRWEGLVHISELRREGRVANVADVVSKGQRVKVKVLSFTGTKTSLSMKDVDQETGEDLNPNRRRNLVGETNEETSMRNPDRPTHLSLVSAPEVEDDSLERKRLTRISDPEKWEIKQMIAANVLSKEEFPDFDEETGILPKVDDEEDEDLEIELVEEEPPFLRGHTKQSMDMSPIKIVKNPDGSLSQAAMMQSALAKERRELKQAQREAEMDSIPMGLNKHWVDPLPDAEGRQIAANMRGIGMMPNDIPEWKKHAFGGNKASYGKKTQMSILEQRESLPIYKLKEQLVQAVHDNQILIVIGETGSGKTTQITQYLAEAGYTSRGKIGCTQPRRVAAMSVAKRVSEEFGCCLGQEVGYTIRFEDCTSPETVIKYMTDGMLLRECLIDPDLTQYAIIMLDEAHERTIHTDVLFGLLKKTVQKRQDMKLIVTSATLDAVKFSQYFYEAPIFTIPGRTYPVEILYTKEPETDYLDASLITVMQIHLTEPPGDILVFLTGQEEIDTACEILYERMKSLGPDVPELIILPVYSALPSEMQTRIFDPAPPGSRKVVIATNIAETSLTIDGIYYVVDPGFVKQKVYNSKTGIDQLVVTPISQAQAKQRAGRAGRTGPGKCYRLYTERAYRDEMLTTNVPEIQRTNLASTVLSLKAMGINDLLSFDFMDAPPMETLITAMEQLYTLGALDDEGLLTRLGRRMAEFPLEPMLCKMLIMSVHLGCSEEMLTIVSMLSVQNVFYRPKDKQALADQKKAKFHQTEGDHLTLLAVYNSWKNNKFSNPWCYENFIQARSLRRAQDIRKQMLGIMDRHKLDVVSCGKSTVRVQKAICSGFFRNAAKKDPQEGYRTLIDQQVVYIHPSSALFNRQPEWVVYHELVLTTKEYMREVTTIDPRWLVEFAPAFFKVSDPTKLSKQKKQQRLEPLYNRYEEPNAWRISRAFRRR

- Variants of: B1
- measurement_protocol: BioID proximity labeling (mass spectrometry spectral counts)
- experimental_context: with DEAH-box RNA helicase DHX8 [human (endogenous in Flp-In T-REx 293)]; MAC-tagged protein expression induced with tetracycline in the presence of biotin for 24 h; three independent replicates; parent: 23; read off a plot
quantity_name: response (spectral count)
Please state the value as a number alone, without comment.

chain 1 F354A : 19
chain 1 Q352A : 23
chain 1 Y312A F354A : 23

Shifting focus to the variant that follows.
The value of response (spectral count) measured for the variant chain 1 Y312A turned out to be 19
